Recorded Freeze-thaw stability, Accuracy values for a group of compounds are listed next.
# Assay Name: Analyte stability in brain homogenate
# Assay type: physicochemical, human
# Run Parameters: 3 cycles, LQC 0.6 nM
Just the number in %, nothing appended.

Here's what some known entries look like.
• CCN1CCN(Cc2ccc(Nc3ncc(F)c(-c4cc(F)c5nc(C)n(C(C)C)c5c4)n3)nc2)CC1 = 104.4
• Cc1nc2c(F)cc(-c3nc(Nc4ccc(CN5CCNCC5)cn4)ncc3F)cc2n1C(C)C = 98.3
• Cn1nccc1Nc1nccc(-c2cc3c(s2)C(C)(C)N(CCN2CCOCC2)C3=O)n1 = 101.4

## Input Return reported Freeze-thaw stability, Accuracy; argument: CCN1CCN(Cc2ccc(Nc3ncc(F)c(-c4cc(F)c5nc(CO)n(C(C)C)c5c4)n3)nc2)CC1
## Output 108.5

---

# Assay Name: Equilibrium dialysis, fraction unbound in patient brain tumor tissue
# Format: in vitro ADME
# Run Parameters: human, pH 7.4, gadolinium contrast non-enhancing GBM region, five patients; 16 h equilibrium dialysis; read-out: Fraction unbound (fu), GBM (NE)
Recorded Metric: fraction unbound at 16 h
Write the number on its own, no unit after it.

- Cn1nccc1Nc1nccc(-c2cc3c(s2)C(C)(C)N(CCN2CCOCC2)C3=O)n1 [LY3214996]: 0.06
- CCN1CCN(Cc2ccc(Nc3ncc(F)c(-c4cc(F)c5nc(CO)n(C(C)C)c5c4)n3)nc2)CC1 [M20]: 0.017

## Input Return reported fraction unbound at 16 h; argument: CCN1CCN(Cc2ccc(Nc3ncc(F)c(-c4cc(F)c5nc(C)n(C(C)C)c5c4)n3)nc2)CC1 [Abemaciclib]
## Output 0.011

## Input Return reported fraction unbound at 16 h; argument: Cc1nc2c(F)cc(-c3nc(Nc4ccc(CN5CCNCC5)cn4)ncc3F)cc2n1C(C)C [M2]
## Output 0.006

---

Recorded concentration at 6 day (intra-operative) values for a group of compounds are listed next.
# Assay Name: Levels in intraoperatively collected CSF of GBM patients
# Type: in vivo
# Run Parameters: human, po, five GBM patients, oral LY3214996 200 mg once daily and abemaciclib 150 mg twice daily for 5 days, intraoperative CSF, read-out: Level in CSF (range)

Here's what some known entries look like.
• CCN1CCN(Cc2ccc(Nc3ncc(F)c(-c4cc(F)c5nc(CO)n(C(C)C)c5c4)n3)nc2)CC1 = 3.1 to 58.1 nM
• Cc1nc2c(F)cc(-c3nc(Nc4ccc(CN5CCNCC5)cn4)ncc3F)cc2n1C(C)C = 1.8 to 30.4 nM

## Input Return reported concentration at 6 day (intra-operative); argument: Cn1nccc1Nc1nccc(-c2cc3c(s2)C(C)(C)N(CCN2CCOCC2)C3=O)n1
## Output 49.7 to 118 nM

---

# Assay Name: Analyte stability in brain homogenate
# Assay type: physicochemical, human
# Run Parameters: 22 h, LQC 0.6 nM
Recorded Metric: Processed sample stability, Accuracy (%)
Just the number in %, nothing appended.

Here's what some known entries look like.
* CCN1CCN(Cc2ccc(Nc3ncc(F)c(-c4cc(F)c5nc(C)n(C(C)C)c5c4)n3)nc2)CC1 | 104.5
* Cn1nccc1Nc1nccc(-c2cc3c(s2)C(C)(C)N(CCN2CCOCC2)C3=O)n1 | 112.3

## Input Return reported Processed sample stability, Accuracy; argument: CCN1CCN(Cc2ccc(Nc3ncc(F)c(-c4cc(F)c5nc(CO)n(C(C)C)c5c4)n3)nc2)CC1
## Output 100.5

## Input Return reported Processed sample stability, Accuracy; argument: Cc1nc2c(F)cc(-c3nc(Nc4ccc(CN5CCNCC5)cn4)ncc3F)cc2n1C(C)C
## Output 105.4

---

# Assay Name: Analyte stability in brain homogenate
# Type: physicochemical, human
# Run Parameters: 6 h, LQC 0.6 nM
Recorded Benchtop stability, Accuracy values for a group of molecules are listed next.
Just the number in %, nothing appended.

Here's what some known entries look like.
- CCN1CCN(Cc2ccc(Nc3ncc(F)c(-c4cc(F)c5nc(C)n(C(C)C)c5c4)n3)nc2)CC1: 108.3
- Cn1nccc1Nc1nccc(-c2cc3c(s2)C(C)(C)N(CCN2CCOCC2)C3=O)n1: 110.2
- CCN1CCN(Cc2ccc(Nc3ncc(F)c(-c4cc(F)c5nc(CO)n(C(C)C)c5c4)n3)nc2)CC1: 100.0

From here, focus on the item given below.
## Input Return reported Benchtop stability, Accuracy; argument: Cc1nc2c(F)cc(-c3nc(Nc4ccc(CN5CCNCC5)cn4)ncc3F)cc2n1C(C)C
## Output 102.4

---

# Assay Name: Analyte stability in brain homogenate
# Assay type: physicochemical, human
# Run Parameters: 96 h, HQC 400.0 nM
Recorded Metric: Autosampler stability (5 °C), Accuracy (%)
Just the number in %, nothing appended.

Here's what some known entries look like.
• Cc1nc2c(F)cc(-c3nc(Nc4ccc(CN5CCNCC5)cn4)ncc3F)cc2n1C(C)C [M2] = 105.4
• Cn1nccc1Nc1nccc(-c2cc3c(s2)C(C)(C)N(CCN2CCOCC2)C3=O)n1 [LY3214996] = 105.2
• CCN1CCN(Cc2ccc(Nc3ncc(F)c(-c4cc(F)c5nc(C)n(C(C)C)c5c4)n3)nc2)CC1 [Abemaciclib] = 102.8

From here, focus on the item given below.
## Input Return reported Autosampler stability (5 °C), Accuracy; argument: CCN1CCN(Cc2ccc(Nc3ncc(F)c(-c4cc(F)c5nc(CO)n(C(C)C)c5c4)n3)nc2)CC1 [M20]
## Output 100.3

---

Recorded fraction unbound at 16 h values for a group of molecules are listed next.
# Assay Name: Equilibrium dialysis, fraction unbound in plasma
# Type: in vitro ADME, human
# Run Parameters: human, pH 7.4; plasma of five GBM patients; 16 h equilibrium dialysis; read-out: Fraction unbound (fu), Plasma (patients)
Write the number on its own, no unit after it.

Here's what some known entries look like.
• CCN1CCN(Cc2ccc(Nc3ncc(F)c(-c4cc(F)c5nc(C)n(C(C)C)c5c4)n3)nc2)CC1 [Abemaciclib] = 0.026
• CCN1CCN(Cc2ccc(Nc3ncc(F)c(-c4cc(F)c5nc(CO)n(C(C)C)c5c4)n3)nc2)CC1 [M20] = 0.023

## Input Return reported fraction unbound at 16 h; argument: Cc1nc2c(F)cc(-c3nc(Nc4ccc(CN5CCNCC5)cn4)ncc3F)cc2n1C(C)C [M2]
## Output 0.045

## Input Return reported fraction unbound at 16 h; argument: Cn1nccc1Nc1nccc(-c2cc3c(s2)C(C)(C)N(CCN2CCOCC2)C3=O)n1 [LY3214996]
## Output 0.406

---

# Assay Name: Equilibrium dialysis, fraction unbound in brain homogenate
# Assay type: in vitro ADME, human
# Run Parameters: pH 7.4; human brain homogenate spiked at 20 and 200 nM; 16 h equilibrium dialysis; read-out: Fraction unbound (fu), Brain
Recorded Metric: fraction unbound at 16 h

• Cn1nccc1Nc1nccc(-c2cc3c(s2)C(C)(C)N(CCN2CCOCC2)C3=O)n1 = 0.065
• CCN1CCN(Cc2ccc(Nc3ncc(F)c(-c4cc(F)c5nc(CO)n(C(C)C)c5c4)n3)nc2)CC1 = 0.021
• Cc1nc2c(F)cc(-c3nc(Nc4ccc(CN5CCNCC5)cn4)ncc3F)cc2n1C(C)C = 0.008

## Input Return reported fraction unbound at 16 h; argument: CCN1CCN(Cc2ccc(Nc3ncc(F)c(-c4cc(F)c5nc(C)n(C(C)C)c5c4)n3)nc2)CC1
## Output 0.013

---

Recorded Processed sample stability, Difference values for a group of molecules are listed next.
# Assay Name: Analyte stability in brain homogenate
# Type: physicochemical, human
# Run Parameters: 22 h, HQC 400.0 nM, vs freshly processed QC
Just the number in %, nothing appended.

• Cc1nc2c(F)cc(-c3nc(Nc4ccc(CN5CCNCC5)cn4)ncc3F)cc2n1C(C)C = −2.8
• Cn1nccc1Nc1nccc(-c2cc3c(s2)C(C)(C)N(CCN2CCOCC2)C3=O)n1 = −0.9
• CCN1CCN(Cc2ccc(Nc3ncc(F)c(-c4cc(F)c5nc(CO)n(C(C)C)c5c4)n3)nc2)CC1 = −0.2

## Input Return reported Processed sample stability, Difference; argument: CCN1CCN(Cc2ccc(Nc3ncc(F)c(-c4cc(F)c5nc(C)n(C(C)C)c5c4)n3)nc2)CC1
## Output −1.4

---

Recorded Benchtop stability, Difference values for a group of compounds are listed next.
# Assay Name: Analyte stability in brain homogenate
# Format: physicochemical, human
# Run Parameters: 6 h, HQC 400.0 nM, vs freshly processed QC
Just the number in %, nothing appended.

Here's what some known entries look like.
- CCN1CCN(Cc2ccc(Nc3ncc(F)c(-c4cc(F)c5nc(CO)n(C(C)C)c5c4)n3)nc2)CC1 [M20]: −4.4
- Cn1nccc1Nc1nccc(-c2cc3c(s2)C(C)(C)N(CCN2CCOCC2)C3=O)n1 [LY3214996]: −1.5
- CCN1CCN(Cc2ccc(Nc3ncc(F)c(-c4cc(F)c5nc(C)n(C(C)C)c5c4)n3)nc2)CC1 [Abemaciclib]: −3.7

## Input Return reported Benchtop stability, Difference; argument: Cc1nc2c(F)cc(-c3nc(Nc4ccc(CN5CCNCC5)cn4)ncc3F)cc2n1C(C)C [M2]
## Output −5.9
